Numbers sourced from a melting point compilation (Tetko et al.).

# maps each entry to its melting point

compound: CNCCOc1ccc(OCc2ccccc2)cc1
melting point: 44 to 46 °C
//
compound: Cc1[nH]c(=O)c(C(=O)O)cc1-c1ccc(O)cc1
melting point: 296 to 298 °C
//
compound: COc1ccc2nc(Sc3ncccc3C(=O)O)[nH]c2c1
melting point: 219 to 221 °C

Output measured melting point for this item: O=C(O)c1ccc(S(=O)(=O)N2CCCC2)cc1
243 to 245 °C

Answer with the recorded melting point for the compound listed here: O=C(O)C1CC(=O)N(C2CCS(=O)(=O)C2)C1 (stereo unspecified)
255 to 257 °C

Complete the entry with melting point for CC(=O)Nc1ccc(S(=O)(=O)N(C)CC(=O)O)cc1
225 to 227 °C
